# Assay Target: UniProt:Q9XTA2
# Sequence (Q9XTA2 whole entry): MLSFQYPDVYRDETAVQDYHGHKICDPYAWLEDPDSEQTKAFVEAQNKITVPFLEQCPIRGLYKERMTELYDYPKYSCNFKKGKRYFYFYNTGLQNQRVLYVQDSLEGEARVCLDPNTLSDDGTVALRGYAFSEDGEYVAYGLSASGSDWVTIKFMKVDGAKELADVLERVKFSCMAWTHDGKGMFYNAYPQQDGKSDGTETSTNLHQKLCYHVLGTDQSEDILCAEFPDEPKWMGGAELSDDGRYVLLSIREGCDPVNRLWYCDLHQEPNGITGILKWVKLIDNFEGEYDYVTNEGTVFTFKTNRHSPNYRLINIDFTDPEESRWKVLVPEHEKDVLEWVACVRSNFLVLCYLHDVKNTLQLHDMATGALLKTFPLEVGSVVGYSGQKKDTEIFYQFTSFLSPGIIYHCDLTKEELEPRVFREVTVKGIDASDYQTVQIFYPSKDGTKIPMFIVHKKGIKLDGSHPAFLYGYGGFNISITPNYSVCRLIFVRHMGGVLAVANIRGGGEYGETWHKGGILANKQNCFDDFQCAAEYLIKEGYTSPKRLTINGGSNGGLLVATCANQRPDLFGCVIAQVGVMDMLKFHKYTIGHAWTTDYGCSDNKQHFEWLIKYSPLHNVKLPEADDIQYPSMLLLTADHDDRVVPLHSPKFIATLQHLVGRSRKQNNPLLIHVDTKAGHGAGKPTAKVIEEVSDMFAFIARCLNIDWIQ
Mark TRUE only for IC50 values smaller than 0.04 µM; exact matches and larger values are FALSE.

{"Molecule": "Cc1ccc(CN(C(=O)CCC(=O)N2CCC[C@H]2C=O)c2ccccc2)cc1 [2 (n)]", "Assay Target": "UniProt:Q9XTA2", "Class Assignment": "TRUE"}
{"Molecule": "Cc1ccc(CNC(=O)CCC(=O)N2CCC[C@H]2C=O)cc1 [2 (a)]", "Assay Target": "UniProt:Q9XTA2", "Class Assignment": "TRUE"}
{"Molecule": "O=C[C@@H]1CCCN1C(=O)CCC(=O)NCc1ccccc1 [1 (a)]", "Assay Target": "UniProt:Q9XTA2", "Class Assignment": "FALSE"}
{"Molecule": "O=C[C@@H]1CCCN1C(=O)[C@@H]1CCC[C@H]1C(=O)NCc1ccccc1 [1 (x)]", "Assay Target": "UniProt:Q9XTA2", "Class Assignment": "TRUE"}
{"Molecule": "O=C[C@@H]1CCCN1C(=O)CCC(=O)NCc1cccc2ccccc12 [2 (y)]", "Assay Target": "UniProt:Q9XTA2", "Class Assignment": "FALSE"}
{"Molecule": "O=C[C@@H]1CCCN1C(=O)CCC(=O)NCC(c1ccccc1)c1ccccc1 [1 (bb)]", "Assay Target": "UniProt:Q9XTA2", "Class Assignment": "FALSE"}
{"Molecule": "O=C[C@@H]1CCCN1C(=O)CCC(=O)NCc1ccco1 [2 (dd)]", "Assay Target": "UniProt:Q9XTA2", "Class Assignment": "FALSE"}
{"Molecule": "O=C[C@@H]1CCCN1C(=O)CCC(=O)NCCCCCc1ccccc1 [1 (h)]", "Assay Target": "UniProt:Q9XTA2", "Class Assignment": "FALSE"}
{"Molecule": "CN(Cc1ccccc1)C(=O)C=CC(=O)N1CCC[C@H]1C=O [1 (s)]", "Assay Target": "UniProt:Q9XTA2", "Class Assignment": "FALSE"}
{"Molecule": "O=C[C@@H]1CCCN1C(=O)CCC(=O)NCCc1ccccc1 [Example 1]", "Assay Target": "UniProt:Q9XTA2", "Class Assignment": "FALSE"}
{"Molecule": "O=C[C@@H]1CCCN1C(=O)CCC(=O)NCc1ccccc1Cl [2 (e)]", "Assay Target": "UniProt:Q9XTA2", "Class Assignment": "FALSE"}
